Test system: Mus musculus
test_summary: Oral bioavailability in C57BL/6 mouse at 30 mg/kg after 24 hrs by LC-MS/MS analysis
Format: ADME, organism-based
test_conditions: in vivo
value_kind: F (%)

a = N#Cc1cc2cc(CN3CCC(Nc4ncnc5sc(CC(F)(F)F)cc45)CC3)ccc2[nH]1
b = Cc1c(CN2CCC(Nc3ncnc4sc(CC(F)(F)F)cc34)CC2)c(O)cc2[nH]c(C#N)cc12
input: Between a and b , whose measured F reads higher? Your answer should be the label of the entry you select.
output: a

====

Tested on: Mus musculus
test_summary: Tmax in C57BL/6 mouse plasma at 30 mg/kg, po after 24 hrs by LC-MS/MS analysis
Assay type: ADME, organism-based
test_conditions: in vivo
value_kind: Tmax (h)

COc1cc2[nH]c(C#N)cc2c(C)c1CN1CCC(Nc2ncnc3sc(CC(F)(F)F)cc23)CC1	0.5
Cc1c(CN2CCC(Nc3ncnc4sc(CC(F)(F)F)cc34)CC2)c(O)cc2[nH]c(C#N)cc12	2

P = N#Cc1cc2cc(CN3CCC(Nc4ncnc5sc(CC(F)(F)F)cc45)CC3)c(O)cc2n1Cc1cn[nH]c1
Q = N#Cc1cc2cc(CN3CCC(Nc4ncnc5sc(CC(F)(F)F)cc45)CC3)ccc2[nH]1
input: For the pair P and Q , which member has the lower Tmax number? Reply briefly: the label of your chosen item.
output: Q
(Q: 1 h, P: 2 h)
